Data origin: patent US7348334B2

Some compounds, each annotated with its measured melting point.
PARAMETER: melting point

- COMPOUND: "CCc1nc(-c2ccccc2)cc(=O)n1CCOc1ccc(SC(C(=O)O)C(C)C)cc1 (centres unmarked) [Example 44]"
  MEASURED_VALUE: "64 °C"
- COMPOUND: "CCc1nc(-c2ccccc2)cc(=O)n1CCNc1ccc(SC(CC(C)C)C(=O)O)cc1 (centres unmarked) [Example 47]"
  MEASURED_VALUE: "62 to 64 °C"
- COMPOUND: "CCCCCCC(Oc1ccc(NC(=O)Cn2c(CC)nc(-c3ccccc3)cc2=O)cc1)C(=O)OCC (centres unmarked) [Example 9]"
  MEASURED_VALUE: "140 to 143 °C"
- COMPOUND: "CCCC(Nc1ccc(OCCn2c(CC)nc(-c3ccccc3)cc2=O)cc1)C(=O)O (centres unmarked) [Example 39]"
  MEASURED_VALUE: "155 to 157 °C"
- COMPOUND: "CCCC(Nc1ccc(OCCn2c(CC)nc(-c3ccccc3)cc2=O)cc1)C(=O)OCC (centres unmarked) [Example 24]"
  MEASURED_VALUE: "40 °C"
- COMPOUND: "CCc1nc(-c2ccccc2)cc(=O)n1CCOc1ccc(NC(C)(C)C(=O)O)cc1 [Example 38]"
  MEASURED_VALUE: "168 to 169 °C"
- COMPOUND: "CCc1nc(-c2ccccc2)cc(=O)n1CCOc1ccc(NC(C)C(=O)O)cc1 (centres unmarked) [Example 35]"
  MEASURED_VALUE: "192 to 194 °C"
- COMPOUND: "CCc1nc(-c2ccccc2)cc(=O)n1CCOc1ccc(OC(C)(C)C(=O)O)cc1 [Example 31]"
  MEASURED_VALUE: "158 to 160 °C"
- COMPOUND: "CCOC(=O)C(C)(C)Oc1ccc(NC(=O)Cn2c(CC)nc(-c3ccccc3)cc2=O)cc1 [Example 4]"
  MEASURED_VALUE: "128 to 130 °C"
- COMPOUND: "CCc1nc(-c2ccccc2)cc(=O)n1CCOc1ccc(NC(C)C(=O)O)cc1 (centres unmarked) [Example 34]"
  MEASURED_VALUE: "52 °C"
- COMPOUND: "CCc1nc(-c2ccccc2)cc(=O)n1CCOc1ccc(OC(C)(CC)C(=O)O)cc1 (centres unmarked) [Example 33]"
  MEASURED_VALUE: "159 to 161 °C"
